The reader will find reported slope values listed item by item below.
TEST_TARGET: Alpha-2C adrenergic receptor (Homo sapiens)
ASSAY_SUMMARY: modulators of alpha2C/GIRK thallium flux, primary screen, cell-based, HEK293 alpha2C/GIRK1/2 (AID 624);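 also: slope of fluorescence ratio to pre-addition baseline per second over 15 to 24 s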
STATED_CONDITIONS: thallium flux BTC fluorescence, at 10 µM, actives lie on both sides
Write the value as a bare number.

Below, each entry is followed by its recorded slope result.
CHEMICAL_SMILES | PROPERTY | MEASURED_VALUE
Nc1ncnc2nc(SCc3ccccc3)[nH]c12 | slope | 0.00504
CC1(C)Cc2c(C#N)c(NCCc3ccccc3)nc(-c3ccco3)c2CO1 | slope | 0.00499

For the next question, use this compound.
stdin: Fill in: slope of "CCCc1cc(C(=O)Cc2ccc(F)cc2)c(O)cc1O" is ___
stdout: 0.00499

These measurements were taken from PubChem BioAssay.
